# experimental_system: G-protein coupled receptor 35 (Homo sapiens)
# test_protocol: Desensitization of GPR35 in human HT-29 cells assessed as inhibition of zaprinast-induced dynamic mass redistribution pretreated for 1 hr followed by zaprinast stimulation
pIC50 for assorted molecules
Scale for pIC50: -log10 of concentration given in mol/L; no unit attached.

O=C(Nc1cc(Br)ccc1-c1nnn[nH]1)c1ccco1
6.36
Cc1ccccc1C(=O)Nc1cc(Br)ccc1-c1nnn[nH]1
6.09
CC(C)C(=O)Nc1cc(Br)ccc1-c1nnn[nH]1
6.55
O=C(Nc1cc(Br)ccc1-c1nnn[nH]1)c1cccc(Cl)c1
6.32

Req: Tell me the measured pIC50 of "Cc1ccc(C(=O)Nc2cc(Br)ccc2-c2nnn[nH]2)cc1" , please.
Resp: 6.29

Req: Tell me the measured pIC50 of "COc1cccc(C(=O)Nc2cc(Br)ccc2-c2nnn[nH]2)c1" , please.
Resp: 6.09

###

pEC50 for assorted molecules
# experimental_system: G-protein coupled receptor 35 (Homo sapiens)
# test_protocol: Agonist activity at GPR35 in human HT-29 cells by dynamic mass redistribution assay
# Format: functional, cell-based
# measurement_conditions: read-out: EC50
Scale for pEC50: -log10 of concentration given in mol/L; no unit attached.

Observe how each entry below is paired with its result.
COc1ccc(C(=O)Nc2ccc(-c3nnn[nH]3)cc2)cc1
4.75
COc1ccccc1C(=O)Nc1cc(Br)ccc1-c1nnn[nH]1
6.07
COc1ccc(C(=O)Nc2ccccc2-c2nn[nH]n2)cc1
6.19
CCC(=O)Nc1cc(Br)ccc1-c1nnn[nH]1
6.21
O=C(Nc1cc(Br)ccc1-c1nnn[nH]1)c1ccc(F)cc1F
6.89

From here, focus on the item given below.
Req: Tell me the measured pEC50 of "COc1ccc(C(=O)Nc2cc(Br)ccc2-c2nnn[nH]2)c(F)c1" , please.
Resp: 7.39

###

# experimental_system: G-protein coupled receptor 35 (Homo sapiens, UniProt Q9HC97)
# Sequence (Q9HC97 whole entry, the tested form may be a part): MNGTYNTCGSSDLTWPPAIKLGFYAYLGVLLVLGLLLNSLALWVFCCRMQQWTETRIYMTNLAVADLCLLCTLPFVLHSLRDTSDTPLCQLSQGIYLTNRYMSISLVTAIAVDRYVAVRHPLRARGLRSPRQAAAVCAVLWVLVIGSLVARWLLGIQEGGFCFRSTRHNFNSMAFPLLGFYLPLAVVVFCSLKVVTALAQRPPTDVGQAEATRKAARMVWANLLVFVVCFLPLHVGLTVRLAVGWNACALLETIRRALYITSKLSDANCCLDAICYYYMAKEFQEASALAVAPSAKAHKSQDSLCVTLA
# test_protocol: Agonist activity at GPR35 in human HT-29 cells by dynamic mass redistribution assay
# Type: functional, cell-based
# measurement_conditions: read-out: EC50
readout_name: pEC50
Scale for pEC50: -log10 of concentration given in mol/L; no unit attached.

Observe how each entry below is paired with its result.
Cc1ccccc1C(=O)Nc1cc(Br)ccc1-c1nnn[nH]1
5.69
COc1ccc(C(=O)Nc2cc(Br)ccc2-c2nnn[nH]2)cc1
7.23
COc1ccc(C(=O)Nc2cc(F)ccc2-c2nnn[nH]2)cc1
6.70
O=C(Nc1cc(Br)ccc1-c1nnn[nH]1)c1ccc(Cl)cc1Cl
6.51
O=C(Nc1cc(Br)ccc1-c1nnn[nH]1)c1ccccc1Cl
6.06

Req: Tell me the measured pEC50 of "O=C(Nc1cc(Br)ccc1-c1nnn[nH]1)c1cccc(Cl)c1" , please.
Resp: 5.66

Req: Tell me the measured pEC50 of "Cc1ccc(C(=O)Nc2cc(Br)ccc2-c2nnn[nH]2)cc1" , please.
Resp: 5.88

Req: Tell me the measured pEC50 of "O=C(Nc1cc(Br)ccc1-c1nnn[nH]1)c1ccco1" , please.
Resp: 5.97

Req: Tell me the measured pEC50 of "O=C(Nc1cc(Br)ccc1-c1nnn[nH]1)c1ccccc1" , please.
Resp: 6.06

Req: Tell me the measured pEC50 of "COc1ccc(C(=O)Nc2cc(Br)ccc2-c2nnn[nH]2)cc1OC" , please.
Resp: 6.08

Req: Tell me the measured pEC50 of "O=C(Nc1cc(Br)ccc1-c1nnn[nH]1)c1cccc(C(F)(F)F)c1" , please.
Resp: 5.34

###

# experimental_system: G-protein coupled receptor 35 (Homo sapiens, UniProt Q9HC97)
# test_protocol: Agonist activity at GPR35 in human HT-29 cells in presence of GPR35 antagonist ML-145 by dynamic mass redistribution assay
# Assay type: functional, cell-based
The source made the active and inactive calls. No cut-off for these calls is given here.
readout_name: Activity

COc1ccc(C(=O)Nc2ccc(-c3nnn[nH]3)cc2)cc1
inactive
O=C(Nc1cc(Br)ccc1-c1nnn[nH]1)C1CCCCC1
inactive
Cc1cccc(C(=O)Nc2cc(Br)ccc2-c2nnn[nH]2)c1
inactive
O=C(Nc1cc(Br)ccc1-c1nnn[nH]1)c1ccc(Cl)cc1
inactive
O=C(Nc1cc(Br)ccc1-c1nnn[nH]1)c1ccc(C(F)(F)F)cc1
inactive

Req: Tell me the measured Activity of "COc1ccc(C(=O)Nc2ccccc2-c2nn[nH]n2)cc1" , please.
Resp: inactive

Req: Tell me the measured Activity of "COc1ccc(C(=O)Nc2cc(Br)ccc2-c2nnn[nH]2)c(F)c1" , please.
Resp: inactive

Req: Tell me the measured Activity of "COc1ccccc1C(=O)Nc1cc(Br)ccc1-c1nnn[nH]1" , please.
Resp: inactive

Req: Tell me the measured Activity of "COc1ccc(C(=O)Nc2ccc(Br)cc2-c2nnn[nH]2)cc1" , please.
Resp: inactive

Req: Tell me the measured Activity of "O=C(Nc1cc(Br)ccc1-c1nnn[nH]1)c1ccc(Cl)cc1Cl" , please.
Resp: inactive

Req: Tell me the measured Activity of "COc1ccc(C(=O)Nc2cc(Br)ccc2-c2nnn[nH]2)cc1OC" , please.
Resp: inactive

Req: Tell me the measured Activity of "COc1ccc(C(=O)Nc2cc(Br)ccc2-c2nnn[nH]2)cc1" , please.
Resp: inactive

Req: Tell me the measured Activity of "O=C(Nc1cc(Br)ccc1-c1nnn[nH]1)c1cccc(F)c1" , please.
Resp: inactive

Req: Tell me the measured Activity of "COc1cccc(C(=O)Nc2cc(Br)ccc2-c2nnn[nH]2)c1" , please.
Resp: inactive

Req: Tell me the measured Activity of "O=C(Nc1cc(Br)ccc1-c1nnn[nH]1)c1ccccc1F" , please.
Resp: inactive

Req: Tell me the measured Activity of "O=C(Nc1cc(Br)ccc1-c1nnn[nH]1)c1ccco1" , please.
Resp: inactive

Req: Tell me the measured Activity of "COc1ccc(C(=O)Nc2cc(F)ccc2-c2nnn[nH]2)cc1" , please.
Resp: inactive

Req: Tell me the measured Activity of "O=C(Nc1cc(Br)ccc1-c1nnn[nH]1)c1cccs1" , please.
Resp: inactive

###

# experimental_system: G-protein coupled receptor 35 (Homo sapiens)
# test_protocol: Agonist activity at recombinant human N-terminal FLAG/eYFP-fused GPR35a expressed in CHOK1 cells assessed as induction of beta-arrestin recruitment by path hunter assay
# Assay type: cell-based
readout_name: EC50 (µM)
Express it in µM; write the number only.

Req: Tell me the measured EC50 of "O=C1c2ccccc2S(=O)(=O)c2cc(-c3nnn[nH]3)ccc21" , please.
Resp: 3.4

###

pEC50 for assorted compounds
# experimental_system: G-protein coupled receptor 35 (Homo sapiens, UniProt Q9HC97)
# test_protocol: Agonist activity at GPR35 in human HT-29 cells by dynamic mass redistribution assay
# Type: functional, cell-based
# measurement_conditions: read-out: EC50
Scale for pEC50: -log10 of concentration given in mol/L; no unit attached.

O=C(Nc1cc(Br)ccc1-c1nnn[nH]1)c1ccc(C(F)(F)F)cc1
5.44
O=C(Nc1cc(Br)ccc1-c1nnn[nH]1)c1ccccc1F
6.46
CC(C)C(=O)Nc1cc(Br)ccc1-c1nnn[nH]1
6.42

Req: Tell me the measured pEC50 of "COc1ccc(C(=O)Nc2ccc(Br)cc2-c2nnn[nH]2)cc1" , please.
Resp: 6.52

Req: Tell me the measured pEC50 of "Cc1cccc(C(=O)Nc2cc(Br)ccc2-c2nnn[nH]2)c1" , please.
Resp: 6.07

Req: Tell me the measured pEC50 of "COc1cccc(C(=O)Nc2cc(Br)ccc2-c2nnn[nH]2)c1" , please.
Resp: 5.71

Req: Tell me the measured pEC50 of "O=C(Nc1cc(Br)ccc1-c1nnn[nH]1)c1ccc(Cl)cc1" , please.
Resp: 6.28

Req: Tell me the measured pEC50 of "Nc1ccc(Br)cc1-c1nnn[nH]1" , please.
Resp: 4.36

Req: Tell me the measured pEC50 of "O=C(Nc1cc(Br)ccc1-c1nnn[nH]1)c1cccs1" , please.
Resp: 6.29

Req: Tell me the measured pEC50 of "O=C(Nc1cc(Br)ccc1-c1nnn[nH]1)c1ccc(F)cc1" , please.
Resp: 6.35

Req: Tell me the measured pEC50 of "O=C(Nc1cc(Br)ccc1-c1nnn[nH]1)c1cccc(F)c1" , please.
Resp: 6.21

Req: Tell me the measured pEC50 of "O=C(Nc1cc(Br)ccc1-c1nnn[nH]1)C1CCCCC1" , please.
Resp: 6.36

###

# experimental_system: G-protein coupled receptor 35 (Homo sapiens, UniProt Q9HC97)
# test_protocol: Desensitization of GPR35 in human HT-29 cells assessed as inhibition of zaprinast-induced dynamic mass redistribution pretreated for 1 hr followed by zaprinast stimulation
readout_name: log10 IC50 (log10 of the value in nM)
Scale: log10; quantity: IC50; unit before log: nM

Observe how each entry below is paired with its result.
COc1ccccc1C(=O)Nc1cc(Br)ccc1-c1nnn[nH]1
2.60
O=C(Nc1cc(Br)ccc1-c1nnn[nH]1)C1CCCCC1
2.30
O=C(Nc1cc(Br)ccc1-c1nnn[nH]1)c1ccc(F)cc1
2.20
O=C(Nc1cc(Br)ccc1-c1nnn[nH]1)c1ccc(F)cc1F
1.78
COc1ccc(C(=O)Nc2cc(Br)ccc2-c2nnn[nH]2)cc1OC
2.41

Req: Tell me the measured log10 IC50 of "CCC(=O)Nc1cc(Br)ccc1-c1nnn[nH]1" , please.
Resp: 2.85

Req: Tell me the measured log10 IC50 of "O=C(Nc1cc(Br)ccc1-c1nnn[nH]1)c1ccc(Cl)cc1Cl" , please.
Resp: 2.04

Req: Tell me the measured log10 IC50 of "O=C(Nc1cc(Br)ccc1-c1nnn[nH]1)c1ccccc1" , please.
Resp: 2.48

Req: Tell me the measured log10 IC50 of "COc1ccc(C(=O)Nc2cc(Br)ccc2-c2nnn[nH]2)cc1" , please.
Resp: 1.41

Req: Tell me the measured log10 IC50 of "COc1ccc(C(=O)Nc2ccc(-c3nnn[nH]3)cc2)cc1" , please.
Resp: 3.92

Req: Tell me the measured log10 IC50 of "Cc1cccc(C(=O)Nc2cc(Br)ccc2-c2nnn[nH]2)c1" , please.
Resp: 2.56
